Test system: BMP signal in MDA-231-D-BREFluc/Rluc cells
assay-details: BMP signal inhibitory effect (AlphaScreen SureFire SMAD1 p-Ser463/465, BMP-6 stimulation)
Assay type: cell-based
measurement-conditions: BMP-6 stimulated MDA-231-D-BREFluc/Rluc cells, phospho-SMAD1 AlphaScreen; read-out: IC50
Attribute: IC50
The reply should contain only the number, in nM.

Worked set:
{"compound": "CCn1cc(-c2ccnc(Nc3ccc4c(c3)OCCN(C)C4)n2)c(-c2cccnc2)n1 [Example 67]", "endpoint-unit": "nM", "IC50": 5.3}
{"compound": "CCn1cc(-c2ccnc(Nc3ccc4c(c3)CCN(C(C)=O)C4)n2)c(-c2cccnc2)n1 [Example 75]", "endpoint-unit": "nM", "IC50": 14.8}
{"compound": "CCn1cc(-c2ccnc(Nc3ccc4c(c3)CN(CCO)CC4)n2)c(-c2cccnc2)n1 [Example 179]", "endpoint-unit": "nM", "IC50": 5.7}

Please turn your attention to the following entry.
Query block: Retrieve IC50 measured for CCn1cc(-c2ccnc(Nc3ccc4c(c3)CCNC4)n2)c(-c2cccnc2)n1 [Example 168] and print it.
Result block: 1.5
